Tested on: HCV replicon (Huh-7 luc/neo, NS3-NS5B of HCV type 1b)
Assay: HCV replicon assay (Huh-Luc, luciferase readout)
Type: cell-based
Conditions: Huh-Luc cells, HCV type 1b replicon, three days incubation, luciferase activity
MEASUREMENT TYPE: EC50 (µM)

C[C@H](NP(=O)(OC[C@H]1O[C@@H](n2ccc(=O)[nH]c2=O)C2(CC2)[C@@H]1O)Oc1ccc(Cl)cc1)C(=O)OCc1ccccc1 (single isomer, unassigned) [Compound 7a] | 10.9
C[C@H](NP(=O)(OC[C@H]1O[C@@H](n2ccc(=O)[nH]c2=O)C2(CC2)[C@@H]1O)Oc1ccc(Cl)cc1)C(=O)OCc1ccccc1 (single isomer, unassigned) [Compound 7b] | 3.4
